# assayed system: BR P.2 variant RBD (R319-F541 with E484K) (SARS-CoV-2, UniProt P0DTC2 319-541)
# test name: lateral flow NC50, RBD-AuNP vs immobilised ACE2
assay metric: IC50 (µg/mL)
Numbers only; they are read as µg/mL.

Consider the reported IC50 for these binders:
[[record]]
binder = "1035709 (antibody, V domains shown) VH: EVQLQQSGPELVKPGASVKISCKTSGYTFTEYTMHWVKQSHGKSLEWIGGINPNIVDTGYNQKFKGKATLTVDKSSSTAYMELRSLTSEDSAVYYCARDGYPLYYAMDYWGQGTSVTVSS VL: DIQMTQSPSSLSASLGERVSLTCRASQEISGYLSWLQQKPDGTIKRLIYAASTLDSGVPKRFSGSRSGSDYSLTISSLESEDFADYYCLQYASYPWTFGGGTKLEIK"
assay_metric = "IC50"
test_result = 0.61

[[record]]
binder = "1035740 (antibody, V domains shown) VH: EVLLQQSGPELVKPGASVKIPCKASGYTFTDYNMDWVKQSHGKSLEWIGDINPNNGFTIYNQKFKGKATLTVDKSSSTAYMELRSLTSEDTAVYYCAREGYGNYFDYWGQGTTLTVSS VL: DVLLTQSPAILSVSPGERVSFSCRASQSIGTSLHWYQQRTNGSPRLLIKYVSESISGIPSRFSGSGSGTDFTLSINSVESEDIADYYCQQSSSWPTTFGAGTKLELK"
assay_metric = "IC50"
test_result = 1.48

[[record]]
binder = "1035762 (antibody, V domains shown) VH: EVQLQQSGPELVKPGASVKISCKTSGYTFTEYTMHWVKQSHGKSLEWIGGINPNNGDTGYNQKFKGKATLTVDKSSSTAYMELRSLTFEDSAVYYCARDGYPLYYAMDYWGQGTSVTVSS VL: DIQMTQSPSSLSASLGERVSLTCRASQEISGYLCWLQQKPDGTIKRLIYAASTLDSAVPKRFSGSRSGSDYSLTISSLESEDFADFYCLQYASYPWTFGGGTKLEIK"
assay_metric = "IC50"
test_result = 0.85


Req: Which IC50 is reported for this binder? 1035419 (antibody, V domains shown) VH: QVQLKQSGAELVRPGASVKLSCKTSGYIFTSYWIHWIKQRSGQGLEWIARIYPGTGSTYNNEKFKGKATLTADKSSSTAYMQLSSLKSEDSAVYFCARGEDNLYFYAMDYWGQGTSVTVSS VL: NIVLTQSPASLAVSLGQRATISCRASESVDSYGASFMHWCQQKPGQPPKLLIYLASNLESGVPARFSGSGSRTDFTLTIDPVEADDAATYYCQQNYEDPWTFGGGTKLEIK
Resp: 6.48
